The origin of these recorded values is paper PMC11897524.

Measurement Target: AXL (Homo sapiens)
Sequence (P30530 26-894): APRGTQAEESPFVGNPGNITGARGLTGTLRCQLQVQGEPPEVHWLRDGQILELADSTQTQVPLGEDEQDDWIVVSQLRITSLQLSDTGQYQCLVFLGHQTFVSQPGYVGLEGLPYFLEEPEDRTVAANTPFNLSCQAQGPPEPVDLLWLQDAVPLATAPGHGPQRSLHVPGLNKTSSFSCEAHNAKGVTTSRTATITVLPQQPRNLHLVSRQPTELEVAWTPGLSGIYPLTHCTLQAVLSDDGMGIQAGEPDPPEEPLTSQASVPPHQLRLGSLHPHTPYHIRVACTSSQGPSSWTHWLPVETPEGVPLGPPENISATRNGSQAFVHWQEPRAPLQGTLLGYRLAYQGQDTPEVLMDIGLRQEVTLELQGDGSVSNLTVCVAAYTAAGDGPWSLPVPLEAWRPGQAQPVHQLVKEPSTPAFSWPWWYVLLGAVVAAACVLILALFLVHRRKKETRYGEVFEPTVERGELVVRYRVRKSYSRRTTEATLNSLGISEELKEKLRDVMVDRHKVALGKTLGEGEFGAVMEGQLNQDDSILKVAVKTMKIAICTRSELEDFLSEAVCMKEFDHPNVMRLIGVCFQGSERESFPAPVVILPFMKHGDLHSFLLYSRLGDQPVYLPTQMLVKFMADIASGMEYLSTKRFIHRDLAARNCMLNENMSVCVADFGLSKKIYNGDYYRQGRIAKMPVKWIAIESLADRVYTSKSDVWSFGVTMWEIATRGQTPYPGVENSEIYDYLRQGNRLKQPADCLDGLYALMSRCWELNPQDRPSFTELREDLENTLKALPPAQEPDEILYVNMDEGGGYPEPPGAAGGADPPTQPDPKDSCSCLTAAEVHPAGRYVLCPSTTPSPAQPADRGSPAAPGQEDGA

{"Mol Smiles": "CCS(=O)(=O)Cc1cnc(Oc2c(F)cc(F)cc2OCCCCOc2ccc(/C=C/c3cc(OC)cc(OC)c3)cc2)c(-c2cc(C)c3c(=O)[nH]ccn23)c1", "IC50": "> 10 µM"}

###

Measurement Target: STAT5b (Homo sapiens)
Sequence (P51692 whole entry): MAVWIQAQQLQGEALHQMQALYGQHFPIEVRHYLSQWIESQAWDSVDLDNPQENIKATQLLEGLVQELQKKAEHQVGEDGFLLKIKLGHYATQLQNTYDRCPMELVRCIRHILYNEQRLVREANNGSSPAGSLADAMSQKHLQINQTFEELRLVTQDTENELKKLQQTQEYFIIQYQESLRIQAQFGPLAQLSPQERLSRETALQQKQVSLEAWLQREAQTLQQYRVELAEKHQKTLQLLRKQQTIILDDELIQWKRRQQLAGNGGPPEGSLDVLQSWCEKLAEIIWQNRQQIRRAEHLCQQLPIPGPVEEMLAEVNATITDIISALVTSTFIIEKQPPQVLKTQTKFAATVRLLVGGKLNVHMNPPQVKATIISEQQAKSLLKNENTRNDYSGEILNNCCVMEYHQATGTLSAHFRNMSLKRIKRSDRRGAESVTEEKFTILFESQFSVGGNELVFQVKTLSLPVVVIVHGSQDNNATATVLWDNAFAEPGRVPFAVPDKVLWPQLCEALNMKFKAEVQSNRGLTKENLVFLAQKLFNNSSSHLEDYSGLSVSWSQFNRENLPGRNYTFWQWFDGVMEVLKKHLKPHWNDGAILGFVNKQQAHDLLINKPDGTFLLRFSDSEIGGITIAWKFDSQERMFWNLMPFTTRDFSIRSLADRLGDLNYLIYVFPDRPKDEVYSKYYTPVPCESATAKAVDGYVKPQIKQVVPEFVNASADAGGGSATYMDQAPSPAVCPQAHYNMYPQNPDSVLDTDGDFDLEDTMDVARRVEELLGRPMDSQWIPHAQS
pIC50: −log10 of the molar value.

{"Mol Smiles": "CCS(=O)(=O)Cc1cnc(Oc2c(F)cc(F)cc2OCCCCOc2ccc(/C=C/c3cc(OC)cc(OC)c3)cc2)c(-c2cc(C)c3c(=O)[nH]ccn23)c1", "pIC50": "< 5.00"}

###

Measurement Target: TYK2 (Homo sapiens, UniProt P29597)
Sequence (P29597 whole entry): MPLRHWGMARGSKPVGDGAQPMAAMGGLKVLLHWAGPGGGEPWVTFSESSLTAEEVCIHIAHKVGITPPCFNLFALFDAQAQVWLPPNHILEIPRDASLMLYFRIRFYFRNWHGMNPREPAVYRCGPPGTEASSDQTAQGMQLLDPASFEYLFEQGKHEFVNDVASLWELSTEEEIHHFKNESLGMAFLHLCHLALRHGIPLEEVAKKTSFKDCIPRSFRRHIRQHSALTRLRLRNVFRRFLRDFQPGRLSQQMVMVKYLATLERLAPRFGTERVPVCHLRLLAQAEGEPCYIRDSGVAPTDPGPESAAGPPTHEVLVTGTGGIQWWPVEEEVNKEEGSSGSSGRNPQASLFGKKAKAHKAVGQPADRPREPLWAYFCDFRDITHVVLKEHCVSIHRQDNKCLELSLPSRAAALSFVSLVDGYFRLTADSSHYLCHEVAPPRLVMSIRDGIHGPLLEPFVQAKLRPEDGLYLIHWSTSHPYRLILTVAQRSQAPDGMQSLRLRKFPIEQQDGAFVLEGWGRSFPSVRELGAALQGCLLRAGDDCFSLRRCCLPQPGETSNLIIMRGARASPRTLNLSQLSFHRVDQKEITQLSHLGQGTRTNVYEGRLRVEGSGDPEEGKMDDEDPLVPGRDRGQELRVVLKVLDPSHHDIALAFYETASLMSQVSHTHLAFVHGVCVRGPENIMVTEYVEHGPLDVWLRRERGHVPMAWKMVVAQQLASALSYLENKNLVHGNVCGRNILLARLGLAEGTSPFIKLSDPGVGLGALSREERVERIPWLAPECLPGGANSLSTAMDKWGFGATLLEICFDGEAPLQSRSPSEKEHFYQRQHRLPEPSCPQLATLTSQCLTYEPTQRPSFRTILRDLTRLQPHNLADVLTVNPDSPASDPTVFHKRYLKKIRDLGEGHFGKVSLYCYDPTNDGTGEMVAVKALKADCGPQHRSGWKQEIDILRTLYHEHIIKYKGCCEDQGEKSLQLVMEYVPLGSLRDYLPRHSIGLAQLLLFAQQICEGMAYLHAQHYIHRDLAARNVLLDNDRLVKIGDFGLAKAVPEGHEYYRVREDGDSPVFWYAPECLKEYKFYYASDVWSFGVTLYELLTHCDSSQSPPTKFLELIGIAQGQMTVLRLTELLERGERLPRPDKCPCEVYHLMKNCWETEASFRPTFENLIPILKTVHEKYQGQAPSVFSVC
pIC50: −log10 of the molar value.
Outcome Measure: pIC50

{"Mol Smiles": "CCS(=O)(=O)Cc1cnc(Oc2c(F)cc(F)cc2OCCCCOc2ccc(/C=C/c3cc(OC)cc(OC)c3)cc2)c(-c2cc(C)c3c(=O)[nH]ccn23)c1", "Recorded Value": "< 5.00"}
